Tested on: MEC-1 cells
Assay: MEC-1 cell death (PCD) after 2 h peptide treatment
Type: cell-based
Conditions: Table 4
Non-standard residues stand in square brackets, D forms with d. Residues, ends and D or L forms follow the SMILES beside them. NMeR = CN[C@@H](CCCNC(=N)N)C(=O)O; Nle = CCCC[C@H](N)C(=O)O
experimental.readout: Cell Death (MEC-1, 2 h)
Kindly write the number and append the unit.

Input line: Report Cell Death (MEC-1, 2 h) for CSCC[C@H](NC(=O)[C@@H](NC(=O)[C@@H](NC(=O)[C@H](Cc1ccc(O)cc1)NC(=O)[C@H](Cc1ccccc1)NC(=O)[C@H](CCCNC(=N)N)N(C)C(=O)[C@H](N)CCCCN)C(C)C)C(C)C)C(=O)N[C@@H](Cc1c[nH]c2ccccc12)C(=O)N[C@@H](CCCCN)C(=O)N[C@H](CCCCN)C(=O)O [PKT11, H-(D)K ψ(CONMe)R F Y V V M W K (D)K-OH] please.
Output line: 60%

Input line: Reported Cell Death (MEC-1, 2 h) for CSCC[C@H](NC(=O)[C@@H](NC(=O)[C@@H](NC(=O)[C@H](Cc1ccc(O)cc1)N(C)C(=O)[C@H](Cc1ccccc1)NC(=O)[C@H](CCCNC(=N)N)NC(=O)[C@H](N)CCCCN)C(C)C)C(C)C)C(=O)N[C@@H](Cc1c[nH]c2ccccc12)C(=O)N[C@@H](CCCCN)C(=O)N[C@H](CCCCN)C(=O)O [PKT9, H-(D)K R F ψ(CONMe)Y V V M W K (D)K-OH] : what is it?
Output line: 0%

Input line: Field request: Cell Death (MEC-1, 2 h) | item: CSCC[C@H](NC(=O)[C@@H](NC(=O)[C@@H](NC(=O)[C@H](Cc1ccc(O)cc1)NC(=O)[C@H](Cc1ccccc1)NC(=O)[C@H](CCCNC(=N)N)N(C)C(=O)[C@H](N)CCCCN)C(C)C)C(C)C)C(=O)N[C@@H](Cc1c[nH]c2ccccc12)C(=O)N(C)[C@@H](CCCCN)C(=O)N[C@H](CCCCN)C(=O)O [PKT15]
Output line: 10%

Input line: Report Cell Death (MEC-1, 2 h) for CC(C)C[C@H](NC(=O)[C@@H](NC(=O)[C@@H](NC(=O)[C@H](Cc1ccc(O)cc1)NC(=O)[C@H](Cc1ccccc1)NC(=O)[C@H](CCCNC(=N)N)N(C)C(=O)[C@H](N)CCCCN)C(C)C)C(C)C)C(=O)N[C@@H](Cc1c[nH]c2ccccc12)C(=O)N[C@@H](CCCCN)C(=O)N[C@H](CCCCN)C(=O)O [PKT17, H-(D)K ψ(CONMe)R F Y V V L W K (D)K-OH] (H-[dK][NMeR]FYVVLWK[dK]-OH) please.
Output line: 30%

Input line: State the recorded Cell Death (MEC-1, 2 h) for this entry: CCCC[C@H](NC(=O)[C@@H](NC(=O)[C@@H](NC(=O)[C@H](Cc1ccc(O)cc1)NC(=O)[C@H](Cc1ccccc1)NC(=O)[C@H](CCCNC(=N)N)N(C)C(=O)[C@H](N)CCCCN)C(C)C)C(C)C)C(=O)N[C@@H](Cc1c[nH]c2ccccc12)C(=O)N[C@@H](CCCCN)C(=O)N[C@H](CCCCN)C(=O)O [PKT16, H-(D)K ψ(CONMe)R F Y V V X W K (D)K-OH] (H-[dK][NMeR]FYVV[Nle]WK[dK]-OH)
Output line: 68%

Input line: For the compound CSCC[C@H](NC(=O)[C@@H](NC(=O)[C@@H](NC(=O)[C@H](Cc1ccc(O)cc1)NC(=O)[C@H](Cc1ccccc1)NC(=O)[C@H](CCCNC(=N)N)NC(=O)[C@H](N)CCCCN)C(C)C)C(C)C)C(=O)N(C)[C@@H](Cc1c[nH]c2ccccc12)C(=O)N[C@@H](CCCCN)C(=O)N[C@H](CCCCN)C(=O)O [PKT12, H-(D)K R F Y V V M ψ(CONMe)W K (D)K-OH] , what Cell Death (MEC-1, 2 h) is on record?
Output line: 0%
